- System: NRG-mice bearing LNCaP tumors
- method: Biodistribution (and PET/SPECT imaging) in NRG-mice bearing LNCaP tumors
- Assay type: in vivo
- assayContext: 72 h p.i., Avg
*1 amine or outer side, *2 acyl side, *3 side chain or, on linkers, in order; H or OH if unused. Where a SMILES comes first, the peptide text is derived from it. [ ]: non-standard residue; d: D form. The star is where a group is joined. ξ: configuration not given here. ξLys(Nα-CO-ξAad) = O=C(O)CCCC(NC(=O)NC(CCCCN*)C(=O)O)C(=O)O; Butanoyl(4-(4-NO2Ph)) = O=C(CCCc1ccc([N+](=O)[O-])cc1)*; DOTA = O=C(O)CN1CCN(CC(=O)O)CCN(CC(=O)*)CCN(CC(=O)O)CC1; Butanoyl(4-(4-MeO-phenyl)) = COc1ccc(CCCC(=O)*)cc1; ξAla(9-anthryl) = NC(Cc1c2ccccc2cc2ccccc12)C(=O)O; X2 = O=C(NC(CCCCN*)C(=O)O)NC(CC(F)C(=O)O)C(=O)O; X1 = O=C(C1CCC(CN[*:1])CC1)[*:2]; ξK = NCCCCC(N)C(=O)O
Measured Biodistribution: Urine values are reported for all entries that follow.
Note: unit % ID/g is implicit; provide only the numeric part.

Study these solved cases before continuing.
>>> reportedmeasurement("COc1ccc(CCCC(=O)NCC(=O)NC(CCCCNC(=O)CN2CCN(CC(=O)[O-])CCN(CC(=O)[O-])CCN(CC(=O)[O-])CC2)C(=O)NCC2CCC(C(=O)NC(Cc3c4ccccc4cc4ccccc34)C(=O)NCCCCC(NC(=O)NC(CCCC(=O)O)C(=O)O)C(=O)O)CC2)cc1.[177Lu+3] (centres unmarked) [^177Lu-HTK03170, reference compound]")
4.96
>>> reportedmeasurement("O=C([O-])CN1CCN(CC(=O)[O-])CCN(CC(=O)NCCCCC(NC(=O)CNC(=O)CCCc2ccc([N+](=O)[O-])cc2)C(=O)NCC(=O)NCC2CCC(C(=O)NC(Cc3c4ccccc4cc4ccccc34)C(=O)NCCCCC(NC(=O)NC(CCCC(=O)O)C(=O)O)C(=O)O)CC2)CCN(CC(=O)[O-])CC1.[225Ac+3] (centres unmarked) [^225Ac-CCZ02017] ({Butanoyl(4-(4-NO2Ph))}-G[ξK](DOTA)G[X1][ξAla(9-anthryl)]-{ξLys(Nα-CO-ξAad)})")
1.33
>>> reportedmeasurement("COc1ccc(CCCC(=O)NCC(=O)NC(CCCCNC(=O)CN2CCN(CC(=O)[O-])CCN(CC(=O)[O-])CCN(CC(=O)[O-])CC2)C(=O)NCC(=O)NCC2CCC(C(=O)NC(Cc3c4ccccc4cc4ccccc34)C(=O)NCCCCC(NC(=O)NC(CC(F)C(=O)O)C(=O)O)C(=O)O)CC2)cc1.[177Lu+3] (centres unmarked) [^177Lu-CCZ02008] ({Butanoyl(4-(4-MeO-phenyl))}-G[ξK](DOTA)G[X1][ξAla(9-anthryl)]-X2)")
4.51
>>> reportedmeasurement("O=C([O-])CN1CCN(CC(=O)[O-])CCN(CC(=O)NCCCCC(NC(=O)CNC(=O)CCCc2ccc([N+](=O)[O-])cc2)C(=O)NCC(=O)NCC2CCC(C(=O)NC(Cc3c4ccccc4cc4ccccc34)C(=O)NCCCCC(NC(=O)NC(CCCC(=O)O)C(=O)O)C(=O)O)CC2)CCN(CC(=O)[O-])CC1.[177Lu+3] (centres unmarked) [^177Lu-CCZ02017] ({Butanoyl(4-(4-NO2Ph))}-G[ξK](DOTA)G[X1][ξAla(9-anthryl)]-{ξLys(Nα-CO-ξAad)})")
2.63

Please find the next compound below.
Find the measured Biodistribution: Urine of COc1ccc(CCCC(=O)NCC(=O)NC(CCCCNC(=O)CN2CCN(CC(=O)[O-])CCN(CC(=O)[O-])CCN(CC(=O)[O-])CC2)CC(=O)NCC2CCC(C(=O)NC(Cc3c4ccccc4cc4ccccc34)C(=O)NCCCCC(NC(=O)NC(CC(F)C(=O)O)C(=O)O)C(=O)O)CC2)cc1.[177Lu+3] (centres unmarked) [^177Lu-CCZ02019] and report it.
1.12
